# System Tested: Bromodomain-containing protein 4 (Homo sapiens, UniProt O60885)
# Measurement Notes: Inhibition of C-terminal His6-tagged BRD4 BD1 (unknown origin) using H-YSGRGK(Ac)GGK(Ac)GLGK(Ac)-GGAK(Ac)RHRK-Biotin-OH as substrate incubated for 1 hrs by HTRF assay
Readout Name: pIC50
Note on units: pIC50 is unitless, being -log10 of a concentration expressed in mol/L.

Reference set (2 entries):
| Line Notation | pIC50 |
| --- | --- |
| Cc1cc(-c2cc3c(=O)n(C)cc(-c4cc(NS(=O)(=O)C(C)C)ccc4Oc4ccc(F)cc4F)c3o2)cc(C)c1OCCO | 8.85 |
| CCS(=O)(=O)Nc1ccc(Oc2ccc(F)cc2F)c(-c2cn(C)c(=O)c3cc(-c4cnc[nH]4)oc23)c1 | 8.92 |

Next molecule, please.
Param item = CCCS(=O)(=O)Nc1ccc(Oc2ccc(F)cc2F)c(-c2cn(C)c(=O)c3cc(-c4cc(C)c(OCCO)c(C)c4)oc23)c1 ; retrieve measured pIC50.
9.03
